Origin of measurements: the supplement of paper PMC6089552

Tested on: A673/TR/shEF
Assay: cell viability (LOESS-normalised, relative to median of negative controls) (log2 ratio); higher = more viable cells (less compound effect), active = hit call of the paper (over 3 MAD below the median)
Conditions: 0.103 µM; library screen: screen3; EWS-FLI1 expression: low (doxycycline-induced shRNA knockdown); treatment time: 72 h
Out of some 3,200 compounds screened, about 300 (9.4%) showed activity. Shown is part of a subset that was picked to be rich in actives.
Mark met only when cell viability (log2) stays strictly below -0.003. Values equal to the cut-off are not met.

Worked examples follow.
| ITEM_SMILES | CLASSIFICATION |
| --- | --- |
| CO[C@H]1C[C@@H]2CC[C@@H](C)[C@@](O)(O2)C(=O)C(=O)N2CCCC[C@H]2C(=O)O[C@H]([C@H](C)C[C@@H]2CC[C@@H](OCCO)[C@H](OC)C2)CC(=O)[C@H](C)/C=C(\C)[C@@H](O)[C@@H](OC)C(=O)[C@H](C)C[C@H](C)/C=C/C=C/C=C/1C | met |
| Cn1cc(C2=C(c3ccc(Cl)cc3Cl)C(=O)NC2=O)c2ccccc21 | not met |
| Nc1ccn([C@@H]2O[C@H](CO)[C@@H](O)C2(F)F)c(=O)n1 | met |
| COCCn1c2c([n+](Cc3cnccn3)c1C)C(=O)c1ccccc1C2=O | met |
| c1ccc([C@H]2CN3CCSC3=N2)cc1 | not met |

Consider Nc1ccn([C@@H]2CS[C@H](CO)O2)c(=O)n1 . Does its cell viability (log2) lie strictly below -0.003? not met

Input NC(=O)c1ncn([C@@H]2O[C@H](CO)[C@@H](O)[C@H]2O)c1N ; condition: cell viability (log2) strictly below -0.003. Does it hold? not met

Would you kindly verify if cell viability (log2) of O=C1[C@H](Cc2ccc(O)cc2)N2C(=O)CCN(C(=O)NCc3ccccc3)[C@H]2CN1Cc1cccc2ccccc12 is strictly less than -0.003? not met

* * *

Tested on: A673/TR/shEF
Test: cell viability (LOESS-normalised, relative to median of negative controls) (log2 ratio); higher = more viable cells (less compound effect), active = hit call of the paper (over 3 MAD below the median)
Details: 25 µM; library screen: screen3; EWS-FLI1 expression: high (no doxycycline); treatment time: 72 h
Screen size: about 3,200 compounds; about 300 (9.4%) showed activity. This is one part of a sample in which actives are shown more often than they occur.
ASSAY_ENDPOINT: cell viability (log2)
Answer with a bare number; do not write a unit.

| COMPOUND | ASSAY_ENDPOINT | RECORDED_VALUE |
| --- | --- | --- |
| CC(C)(O)[C@@H]1CC[C@](C)([C@H]2[C@@H](O)C[C@@]3(C)[C@@H]4C[C@H](O[C@@H]5O[C@H](CO)[C@@H](O)[C@H](O)[C@H]5O)[C@H]5C(C)(C)[C@@H](O[C@@H]6OC[C@@H](O)[C@H](O)[C@H]6O)CC[C@@]56C[C@@]46CC[C@]23C)O1 | cell viability (log2) | 0.0188 |
| COc1cccc2c1C(=O)c1c(O)c3c(c(O)c1C2=O)C[C@@](O)(C(C)=O)C[C@@H]3O[C@H]1C[C@H](N)[C@H](O)[C@H](C)O1 | cell viability (log2) | -4.26 |
| Nc1nc(Cl)nc2c1ncn2[C@@H]1O[C@H](CO)[C@@H](O)[C@@H]1F | cell viability (log2) | -3.63 |
| CCCCCCOC(=O)/N=C(/N)c1ccc(NCc2nc3cc(C(=O)N(CCC(=O)OCC)c4ccccn4)ccc3n2C)cc1 | cell viability (log2) | -0.441 |
| c1ccc([C@H]2CN3CCSC3=N2)cc1 | cell viability (log2) | 0.0427 |
| CCCCC1=NC2(CCCC2)C(=O)N1Cc1ccc(-c2ccccc2-c2nn[nH]n2)cc1 | cell viability (log2) | 0.0719 |
| O=C1[C@H](Cc2ccc(O)cc2)N2C(=O)CCN(C(=O)NCc3ccccc3)[C@H]2CN1Cc1cccc2ccccc12 | cell viability (log2) | -1.07 |
| CCN(CC)C(=S)SSC(=S)N(CC)CC | cell viability (log2) | -4.26 |
| O=C(O)C[C@H](O)C[C@H](O)/C=C/c1c(C2CC2)nc2ccccc2c1-c1ccc(F)cc1 | cell viability (log2) | -3.51 |
| COC(=O)Nc1nc2ccc(Sc3ccccc3)cc2[nH]1 | cell viability (log2) | -1.77 |

Return cell viability (log2) measured with A673/TR/shEF given this compound: COc1c(O)cc(C2Oc3c(c(O)cc(O)c3[C@H]3c4c(O)cc(O)cc4O[C@H](c4ccc(O)cc4)[C@@H]3O)C[C@H]2O)cc1O (some centres not stated) 0.0402

# returns recorded cell viability (log2) (system: A673/TR/shEF) for COc1cccc2c1C(=O)c1c(O)c3c(c(O)c1C2=O)C[C@@](O)(C(=O)CO)C[C@@H]3O[C@H]1C[C@H](N)[C@H](O)[C@H](C)O1 -4.05

I'm curious: which cell viability (log2) was measured for CCCSc1ccc2nc(NC(=O)OC)[nH]c2c1 tested on A673/TR/shEF? -2.99

API: value(readout=cell viability (log2), system=A673/TR/shEF) for record CC(C(=O)O)c1cccc(C(=O)c2ccccc2)c1 (configuration not stated) 0.0365

So what cell viability (log2) did COc1ccc(-c2ccc3c(N4CCOC[C@@H]4C)nc(N4CCOC[C@@H]4C)nc3n2)cc1CO get with A673/TR/shEF? -1.94

GET /values?readout=cell viability (log2)&system=A673/TR/shEF&item= CNC(=O)c1ccccc1Sc1ccc2c(/C=C/c3ccccn3)n[nH]c2c1 -0.513

Param readout= cell viability (log2); system= A673/TR/shEF; entry= CCN(CC)CCNC(=O)c1c(C)[nH]c(/C=C2\C(=O)Nc3ccc(F)cc32)c1C ; returns value. -0.697
